Tested on: UO-31 renal
METHOD_NOTES: NCI-60 one-dose screen, 48 h
TEST_PARAMETERS: 10 µM
The panel holds about 83,000 compounds, 20% with a hit somewhere; the sample as a whole holds those more often. Active and inactive are the calls of the source. How the source made its calls: active means growth percent below 10; inactive means the rest.
Please answer using one outcome listed in true (1) for active, false (0) for inactive

Reference set, count: 6
MOLECULE	TARGET_OF_ASSAY	CLASS_NAME
CC[C@]12C=CCN3CC[C@@]4(c5ccc(OC)cc5N(C)[C@H]4[C@@](O)(C(=O)OC)[C@@H]1OC(=O)CCC[P+](c1ccc(F)cc1)(c1ccc(F)cc1)c1ccc(F)cc1)[C@@H]32	UO-31 renal	false (0)
CCOP(=O)(CC(F)(F)C(F)(F)F)OCC	UO-31 renal	false (0)
CC12CCC3(CCC(=O)NCCCNc4ccnc5cc(Cl)ccc45)[C@@](C)(OO[C@]3(C)O1)O2	UO-31 renal	true (1)
C[C@H]1[C@H](OC(=O)CCC(=O)N(CCCc2cn(-c3ccc([N+](=O)[O-])cc3)nn2)CCNc2ccnc3cc(Cl)ccc23)O[C@@H]2OC3(C)CC[C@H]4[C@H](C)CC[C@@H]1[C@@]24OO3	UO-31 renal	false (0)
CC12OOC(C)(OO1)C2CCC(=O)NCCNc1ccnc2cc(Cl)ccc12 (configuration not stated)	UO-31 renal	false (0)
COc1ccc(/C=C/C(=O)c2nc3ccccc3n2Cc2ccc(Br)cc2)cc1	UO-31 renal	false (0)

Prompt line: Per the assay record, what outcome was assigned to CC[C@]12C=CCN3CC[C@@]4(c5ccc(OC)cc5N(C)[C@H]4[C@@](O)(C(=O)OC)[C@@H]1OC(=O)CCCC[P+](c1ccc(C)cc1)(c1ccc(C)cc1)c1ccc(C)cc1)[C@@H]32 ?
Response line: true (1)
